# target or test system: Acetylcholinesterase (Electrophorus electricus)
# Sequence (O42275 whole entry): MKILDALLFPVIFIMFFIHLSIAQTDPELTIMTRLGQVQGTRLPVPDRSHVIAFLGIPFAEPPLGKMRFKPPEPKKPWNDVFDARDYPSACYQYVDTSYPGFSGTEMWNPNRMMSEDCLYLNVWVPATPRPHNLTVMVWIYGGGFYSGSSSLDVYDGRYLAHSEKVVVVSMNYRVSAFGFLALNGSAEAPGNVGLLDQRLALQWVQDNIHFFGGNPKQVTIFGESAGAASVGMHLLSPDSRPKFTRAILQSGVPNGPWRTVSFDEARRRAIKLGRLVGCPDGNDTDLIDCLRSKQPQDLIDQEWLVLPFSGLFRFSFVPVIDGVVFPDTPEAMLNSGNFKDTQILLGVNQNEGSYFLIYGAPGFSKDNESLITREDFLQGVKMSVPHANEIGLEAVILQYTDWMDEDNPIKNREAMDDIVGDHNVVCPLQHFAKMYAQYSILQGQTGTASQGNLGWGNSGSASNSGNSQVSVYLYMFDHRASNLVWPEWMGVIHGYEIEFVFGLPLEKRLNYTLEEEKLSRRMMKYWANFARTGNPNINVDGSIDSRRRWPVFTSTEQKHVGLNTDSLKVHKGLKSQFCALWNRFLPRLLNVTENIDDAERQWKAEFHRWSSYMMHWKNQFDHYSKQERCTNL
Rule for this label: YES means IC50 is less than 10 µM; NO means IC50 is at least 10 µM.

COc1cc2cc3c4c(cc5c(c4c2cc1OC)OCO5)CCN3C [DEHYDRODICENTRINE]
YES
COc1cc2c(cc1OC)-c1c3c(cc4c1[C@H](C2)N(C)CC4)OCO3
YES
COc1cccc2c1C[C@@H]1c3c(cc4c(c3-2)OCO4)CCN1C
NO
CN1CCc2cc3c(c4c2[C@H]1[C@H](O)c1ccccc1-4)OCO3
NO
COc1c(O)cc2c3c1-c1ccccc1C[C@H]3NCC2 [(-)-ASIMILOBINE]
NO

----------
# target or test system: 5-hydroxytryptamine receptor 2A (Homo sapiens, UniProt P28223)
# test name: Agonist activity at 5-HT2A (unknown origin)
observed property: EC50 (nM)

Oc1cc2c3c(c1Cl)-c1ccccc1CC3NCC2 (stereo unspecified)
596

----------
# target or test system: 5-hydroxytryptamine receptor 2A (Homo sapiens, UniProt P28223)
# test name: Antagonist activity at 5-HT2A (unknown origin) transfected in HEK293 cells by FLIPR assay
# Type: functional, cell-based
observed property: IC50

COc1c(O)cc2c3c1-c1ccccc1CC3N(C)CC2 (stereo unspecified)
19.6 µM

----------
# target or test system: Cholinesterase (Equus caballus, UniProt P81908)
# Sequence (P81908 whole entry): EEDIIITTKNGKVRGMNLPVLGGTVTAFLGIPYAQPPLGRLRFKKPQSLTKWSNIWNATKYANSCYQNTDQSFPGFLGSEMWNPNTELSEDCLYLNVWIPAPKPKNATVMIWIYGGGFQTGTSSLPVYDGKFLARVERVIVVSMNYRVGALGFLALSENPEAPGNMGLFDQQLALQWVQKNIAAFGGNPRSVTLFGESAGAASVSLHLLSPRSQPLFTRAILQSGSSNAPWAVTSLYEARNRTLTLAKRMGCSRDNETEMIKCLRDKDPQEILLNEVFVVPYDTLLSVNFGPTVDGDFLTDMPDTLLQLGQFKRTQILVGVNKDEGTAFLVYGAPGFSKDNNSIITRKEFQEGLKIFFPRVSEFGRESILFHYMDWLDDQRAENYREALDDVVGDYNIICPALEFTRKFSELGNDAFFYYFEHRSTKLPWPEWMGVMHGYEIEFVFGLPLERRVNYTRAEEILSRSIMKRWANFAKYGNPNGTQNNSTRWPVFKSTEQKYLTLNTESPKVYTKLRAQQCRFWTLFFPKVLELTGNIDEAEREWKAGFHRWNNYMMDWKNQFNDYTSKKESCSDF
# test name: Inhibition of equine serum BuChE using BTCI as substrate pre-incubated for 10 mins followed by substrate addition measured after 5 mins by microplate reader analysis
pIC50: −log10 of the molar value.
Catalogue of compounds with associated pIC50
observed property: pIC50

CN1CCc2cc3c(c4c2c1cc1ccccc14)OCO3 [DEHYDROROEMERINE]
5.48
COc1cccc2c1C[C@@H]1c3c(cc4c(c3-2)OCO4)CCN1C
5.55
COc1c(O)cc2c3c1-c1ccccc1C[C@H]3NCC2 [(-)-ASIMILOBINE]
5.00
COc1ccc2c(c1)C[C@@H]1c3c(cc4c(c3-2)OCO4)CCN1C
4.78
COc1cccc2c1[C@@H](O)[C@@H]1c3c(cc4c(c3-2)OCO4)CCN1C
5.23
CN1CCc2cc3c(c4c2[C@H]1Cc1ccccc1-4)OCO3
5.55
COc1cc2cc3c4c(cc5c(c4c2cc1OC)OCO5)CCN3C [DEHYDRODICENTRINE]
5.25

----------
# target or test system: 5-hydroxytryptamine receptor 7 (Homo sapiens, UniProt P34969)
# Sequence (P34969 whole entry): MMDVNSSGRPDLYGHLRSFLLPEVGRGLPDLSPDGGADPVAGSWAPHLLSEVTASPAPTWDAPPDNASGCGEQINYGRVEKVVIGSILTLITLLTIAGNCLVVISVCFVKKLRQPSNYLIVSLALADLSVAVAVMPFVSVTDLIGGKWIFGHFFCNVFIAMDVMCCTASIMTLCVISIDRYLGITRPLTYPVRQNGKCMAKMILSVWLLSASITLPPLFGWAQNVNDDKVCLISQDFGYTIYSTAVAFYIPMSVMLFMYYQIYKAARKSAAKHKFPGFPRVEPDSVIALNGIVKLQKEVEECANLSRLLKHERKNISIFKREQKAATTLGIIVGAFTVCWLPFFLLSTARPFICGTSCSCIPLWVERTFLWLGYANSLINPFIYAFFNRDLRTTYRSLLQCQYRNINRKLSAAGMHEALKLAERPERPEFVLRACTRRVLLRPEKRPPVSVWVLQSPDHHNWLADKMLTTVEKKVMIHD
# test name: Inverse agonist activity at 5-HT7 (unknown origin)
pEC50: −log10 of the molar value.
observed property: pEC50

COc1cc2c3c(c1OC)-c1ccccc1CC3N(C)CC2 (stereo not drawn) [(+/-)-NUCIFERINE]
6.82

----------
# target or test system: D(2) dopamine receptor (Homo sapiens)
# Sequence (P14416 whole entry): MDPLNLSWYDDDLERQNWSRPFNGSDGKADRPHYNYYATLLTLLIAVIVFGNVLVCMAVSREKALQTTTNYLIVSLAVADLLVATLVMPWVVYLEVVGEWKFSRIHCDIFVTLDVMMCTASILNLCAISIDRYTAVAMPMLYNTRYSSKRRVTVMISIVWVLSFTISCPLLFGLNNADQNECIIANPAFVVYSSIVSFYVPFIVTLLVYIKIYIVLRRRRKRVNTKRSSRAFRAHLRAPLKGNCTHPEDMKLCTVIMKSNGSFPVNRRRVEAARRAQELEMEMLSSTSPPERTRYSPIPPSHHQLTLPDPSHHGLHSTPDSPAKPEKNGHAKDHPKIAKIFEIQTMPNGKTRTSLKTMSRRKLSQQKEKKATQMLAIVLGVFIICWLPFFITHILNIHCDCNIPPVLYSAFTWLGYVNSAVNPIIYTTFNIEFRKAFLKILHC
# test name: Antagonist activity at D2R (unknown origin)
observed property: IC50 (µM)

COc1ccc(OC)c2c1C[C@@H]1c3c(cc4c(c3-2)OCO4)CCN1C
18.3
CN1CCc2cc3c(c4c2[C@H]1Cc1ccccc1-4)OCO3
18.8
COc1cccc2c1C[C@@H]1c3c(cc4c(c3-2)OCO4)CCN1C
0.85
COc1cc2c3c(c1OC)-c1cc(O)ccc1C[C@H]3NCC2
5.2

----------
Parameter: pEC50. Scope: all listed entries.
# target or test system: 5-hydroxytryptamine receptor 2C (Homo sapiens, UniProt P28335)
# Sequence (P28335 whole entry): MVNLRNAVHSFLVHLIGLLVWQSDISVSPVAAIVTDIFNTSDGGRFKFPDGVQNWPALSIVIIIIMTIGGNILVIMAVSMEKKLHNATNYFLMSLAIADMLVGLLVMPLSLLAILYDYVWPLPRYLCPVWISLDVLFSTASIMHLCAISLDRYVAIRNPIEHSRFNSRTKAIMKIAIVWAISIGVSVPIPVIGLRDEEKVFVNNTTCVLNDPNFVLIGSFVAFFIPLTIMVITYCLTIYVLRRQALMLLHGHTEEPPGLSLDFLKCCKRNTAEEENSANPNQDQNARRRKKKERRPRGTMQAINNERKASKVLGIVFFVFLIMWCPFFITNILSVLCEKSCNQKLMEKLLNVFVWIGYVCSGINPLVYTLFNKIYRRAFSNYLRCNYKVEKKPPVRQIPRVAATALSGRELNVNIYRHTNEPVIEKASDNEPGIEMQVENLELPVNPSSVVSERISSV
# test name: Agonist activity at 5-HT2C (unknown origin)
# Format: functional
pEC50: −log10 of the molar value.
observed property: pEC50

Oc1cc2c3c(c1Cl)-c1ccccc1CC3NCC2 (stereo not drawn)
7.63
Oc1cc2c3c(c1Cl)-c1ccccc1C[C@H]3NCC2
6.52
Oc1cc2c3c(c1Cl)-c1ccccc1C[C@@H]3NCC2
8.10
